Collected IC50 values appear next to each entry.
- Tested on: HeLa.S3 cell
- Experimental Details: Enhancement of cytocidal effect: colony formation of HeLa S3 cells, known carcinostatic drug added simultaneously with the compound of the present invention, 7 days
- Format: cell-based, human
- Test Settings: Homo sapiens, HeLa S3, compound of the present invention 3.2×10^-5 M; listed as 2): based on case where compound is 3.2×10^-5 M and drug is 0; read-out: IC50 (ng/ml) 3.2×10^-5 d)
Structures can show the parent of a compound that is named as a salt.

Compound	Assayed Target	IC50
COC(COC(N)=O)C1=C(N2CC2)C(=O)C(C)=C(N2CC2)C1=O (stereo not shown) [CQ, carboquone]	HeLa.S3 cell	0.131 ng/mL
O=c1[nH]cc(F)c(=O)[nH]1 [5-FU, fluorouracil]	HeLa.S3 cell	347 ng/mL
COc1cccc2c1C(=O)c1c(O)c3c(c(O)c1C2=O)C[C@@](O)(C(=O)CO)C[C@@H]3O[C@H]1C[C@H](N)[C@H](O)[C@H](C)O1 [ADM, doxorubicin hydrochloride]	HeLa.S3 cell	3.14 ng/mL
Nc1ccn([C@@H]2O[C@H](CO)[C@@H](O)[C@@H]2O)c(=O)n1 [Ara-C, cytarabine]	HeLa.S3 cell	11.6 ng/mL
CO[C@@]12[C@H](COC(N)=O)C3=C(C(=O)C(C)=C(N)C3=O)N1C[C@@H]1N[C@@H]12 [MMC, mitomycin]	HeLa.S3 cell	0.84 ng/mL
Cc1ncc(CNC(=O)N(CCCl)N=O)c(N)n1 [ACNU, minustine hydrochloride]	HeLa.S3 cell	136 ng/mL
CC[C@]1(O)C[C@H]2CN(CCc3c([nH]c4ccccc34)[C@@](C(=O)OC)(c3cc4c(cc3OC)N(C=O)[C@H]3[C@@](O)(C(=O)OC)[C@H](OC(C)=O)[C@]5(CC)C=CCN6CC[C@]43[C@@H]65)C2)C1 [VCR, vincristine sulfate]	HeLa.S3 cell	5.65 ng/mL
